Field: Ki. Provide a value for each of the molecules that follow.
Target Entity: Tyrosine-protein phosphatase non-receptor type 1 (Homo sapiens, UniProt P18031)
Protocol: Inhibition of PTP1B
Express it in µM; write the number only.

Value of Ki reported for the molecule O=c1cc(-c2ccccc2)oc2cc3occc3cc12 is 57

Value of Ki reported for the molecule CC(=O)c1cc2cc(-c3coc4cc(O)c(C(C)=O)cc34)oc2cc1O is 37

Value of Ki reported for the molecule CC(=O)c1c(O)ccc2cc(-c3coc4c(C(C)=O)c(O)ccc34)oc12 is 64

Value of Ki reported for the molecule CC(=O)c1ccc2oc(-c3coc4ccc(C(C)=O)c(O)c34)cc2c1O is 35

Value of Ki reported for the molecule COc1ccc(-c2cc(=O)c3cc4ccoc4cc3o2)cc1 is 30

###

Target Entity: Tyrosine-protein phosphatase non-receptor type 1 (Homo sapiens, UniProt P18031)
Protocol: Inhibition of PTP1B in presence of 0.01% Triton X-100
Field: IC50. Provide a value for each of the compounds that follow.
Express it in µM; write the number only.

Value of IC50 reported for the compound CC(=O)c1cc2cc(-c3coc4cc(O)c(C(C)=O)cc34)oc2cc1O is 91.3

Value of IC50 reported for the compound COc1ccc(-c2cc(=O)c3cc4ccoc4cc3o2)cc1 is 68.8

Value of IC50 reported for the compound CC(=O)c1ccc2oc(-c3coc4ccc(C(C)=O)c(O)c34)cc2c1O is 58.8

Value of IC50 reported for the compound O=c1cc(-c2ccccc2)oc2cc3occc3cc12 is 61.3

Value of IC50 reported for the compound CC(=O)c1c(O)ccc2cc(-c3coc4c(C(C)=O)c(O)ccc34)oc12 is 56.3

###

Field: inhibition. Provide a value for each of the compounds that follow.
Target Entity: Tyrosine-protein phosphatase non-receptor type 1 (Homo sapiens) (UniProt P18031)
Sequence (whole entry): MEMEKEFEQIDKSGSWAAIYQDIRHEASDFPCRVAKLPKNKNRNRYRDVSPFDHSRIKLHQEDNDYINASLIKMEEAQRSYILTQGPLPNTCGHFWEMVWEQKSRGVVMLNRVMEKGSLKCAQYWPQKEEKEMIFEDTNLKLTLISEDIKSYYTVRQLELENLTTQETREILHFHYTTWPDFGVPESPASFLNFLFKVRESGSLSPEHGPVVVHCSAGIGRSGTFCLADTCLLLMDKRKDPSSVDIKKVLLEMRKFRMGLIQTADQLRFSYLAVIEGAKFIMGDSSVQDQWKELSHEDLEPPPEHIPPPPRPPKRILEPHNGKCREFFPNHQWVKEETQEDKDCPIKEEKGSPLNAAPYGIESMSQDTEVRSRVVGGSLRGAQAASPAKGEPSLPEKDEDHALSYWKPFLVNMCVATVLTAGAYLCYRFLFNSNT
Protocol: Inhibition of PTP1B at 100 uM
Express it in %; write the number only.

Value of inhibition reported for the compound CC(=O)c1cc2oc(-c3coc4cc(C(C)=O)c(O)cc34)cc2cc1O is 36.2

Value of inhibition reported for the compound CC(=O)c1c(O)ccc2cc(-c3coc4c(C(C)=O)c(O)ccc34)oc12 is 72

Value of inhibition reported for the compound COC(=O)c1ccc2oc(-c3coc4ccc(C(=O)OC)c(O)c34)cc2c1O is 55.5

Value of inhibition reported for the compound COc1ccc(/C(O)=C/C(=O)c2ccc3occc3c2O)cc1 is 24.3

Value of inhibition reported for the compound O=C(/C=C(\O)c1ccccc1)c1ccc2occc2c1O is 40.5

Value of inhibition reported for the compound COc1cc2occc2cc1C(=O)/C=C(\O)c1ccccc1 is 41.5

Value of inhibition reported for the compound CC(=O)c1ccc2occc2c1O is 21.6

Value of inhibition reported for the compound CC(=O)c1ccc2oc(-c3coc4ccc(C(C)=O)c(O)c34)cc2c1O is 67.4

Value of inhibition reported for the compound COc1ccc(/C(O)=C/C(=O)c2cc3ccoc3cc2O)cc1OC is 32.4

Value of inhibition reported for the compound O=c1cc(-c2ccccc2)oc2c1ccc1occc12 is 21

Value of inhibition reported for the compound COc1ccc(-c2cc(=O)c3cc4ccoc4cc3o2)cc1OC is 24.3

###

Field: inhibition. Provide a value for each of the molecules that follow.
Target Entity: Tyrosine-protein phosphatase non-receptor type 1 (Homo sapiens) (UniProt P18031)
Protocol: Inhibition of PTP1B at 100 uM
Express it in %; write the number only.

Value of inhibition reported for the molecule COc1ccc(/C(O)=C/C(=O)c2cc3ccoc3cc2O)cc1 is 40.5

Value of inhibition reported for the molecule O=c1cc(-c2ccc(CO)c(CO)c2)oc2cc3occc3cc12 is 8.1

Value of inhibition reported for the molecule COc1c(C(=O)/C=C(\O)c2ccccc2Cl)ccc2occc12 is 27

Value of inhibition reported for the molecule COc1c(C(=O)/C=C(\O)c2ccc(CO)c(CO)c2)ccc2occc12 is 42.8

Value of inhibition reported for the molecule COc1ccc(-c2cc(=O)c3ccc4occc4c3o2)cc1 is 22

Value of inhibition reported for the molecule CC(=O)c1cc2ccoc2cc1O is 19

Value of inhibition reported for the molecule COc1ccc2cc(-c3coc4c(C(C)=O)c(OC)ccc34)oc2c1C(C)=O is 54.6

Value of inhibition reported for the molecule O=C(/C=C(\O)c1ccccc1)c1cc2ccoc2cc1O is 24.3

Value of inhibition reported for the molecule COc1ccc(-c2cc(=O)c3cc4ccoc4cc3o2)cc1 is 75.6

Value of inhibition reported for the molecule CC(=O)c1cc2cc(-c3coc4cc(O)c(C(C)=O)cc34)oc2cc1O is 74.9

Value of inhibition reported for the molecule O=c1cc(-c2ccccc2)oc2cc3occc3cc12 is 67.5

Value of inhibition reported for the molecule O=C(/C=C(\O)c1ccc(CO)c(CO)c1)c1cc2ccoc2cc1O is 56.7

###

Target Entity: Tyrosine-protein phosphatase non-receptor type 1 (Homo sapiens)
Sequence (P18031 whole entry): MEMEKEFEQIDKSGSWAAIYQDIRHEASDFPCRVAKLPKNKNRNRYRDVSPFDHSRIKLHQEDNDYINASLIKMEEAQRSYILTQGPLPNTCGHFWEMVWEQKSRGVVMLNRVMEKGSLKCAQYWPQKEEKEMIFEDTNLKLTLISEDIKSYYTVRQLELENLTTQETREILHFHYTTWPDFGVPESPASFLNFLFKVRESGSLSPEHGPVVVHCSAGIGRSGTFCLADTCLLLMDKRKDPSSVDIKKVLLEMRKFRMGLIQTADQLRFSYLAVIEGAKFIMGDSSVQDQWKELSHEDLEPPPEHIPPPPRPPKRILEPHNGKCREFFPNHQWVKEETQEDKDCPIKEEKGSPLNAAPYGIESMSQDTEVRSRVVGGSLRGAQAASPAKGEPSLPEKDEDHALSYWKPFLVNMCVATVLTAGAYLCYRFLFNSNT
Protocol: Inhibition of PTP1B
Quantity Kind: IC50 (µM)
Express it in µM; write the number only.

Value (IC50, Tyrosine-protein phosphatase non-receptor type 1 (Homo sapiens)) for record CC(=O)c1ccc2oc(-c3coc4ccc(C(C)=O)c(O)c34)cc2c1O = 87

Value (IC50, Tyrosine-protein phosphatase non-receptor type 1 (Homo sapiens)) for record O=c1cc(-c2ccccc2)oc2cc3occc3cc12 = 94

Value (IC50, Tyrosine-protein phosphatase non-receptor type 1 (Homo sapiens)) for record CC(=O)c1c(O)ccc2cc(-c3coc4c(C(C)=O)c(O)ccc34)oc12 = 75

Value (IC50, Tyrosine-protein phosphatase non-receptor type 1 (Homo sapiens)) for record COc1ccc(-c2cc(=O)c3cc4ccoc4cc3o2)cc1 = 72.5

Value (IC50, Tyrosine-protein phosphatase non-receptor type 1 (Homo sapiens)) for record CC(=O)c1cc2cc(-c3coc4cc(O)c(C(C)=O)cc34)oc2cc1O = 80
